# subject of test: NADPH oxidase 5 (Homo sapiens) (UniProt Q96PH1)
# Sequence (Q96PH1 whole entry, looked up): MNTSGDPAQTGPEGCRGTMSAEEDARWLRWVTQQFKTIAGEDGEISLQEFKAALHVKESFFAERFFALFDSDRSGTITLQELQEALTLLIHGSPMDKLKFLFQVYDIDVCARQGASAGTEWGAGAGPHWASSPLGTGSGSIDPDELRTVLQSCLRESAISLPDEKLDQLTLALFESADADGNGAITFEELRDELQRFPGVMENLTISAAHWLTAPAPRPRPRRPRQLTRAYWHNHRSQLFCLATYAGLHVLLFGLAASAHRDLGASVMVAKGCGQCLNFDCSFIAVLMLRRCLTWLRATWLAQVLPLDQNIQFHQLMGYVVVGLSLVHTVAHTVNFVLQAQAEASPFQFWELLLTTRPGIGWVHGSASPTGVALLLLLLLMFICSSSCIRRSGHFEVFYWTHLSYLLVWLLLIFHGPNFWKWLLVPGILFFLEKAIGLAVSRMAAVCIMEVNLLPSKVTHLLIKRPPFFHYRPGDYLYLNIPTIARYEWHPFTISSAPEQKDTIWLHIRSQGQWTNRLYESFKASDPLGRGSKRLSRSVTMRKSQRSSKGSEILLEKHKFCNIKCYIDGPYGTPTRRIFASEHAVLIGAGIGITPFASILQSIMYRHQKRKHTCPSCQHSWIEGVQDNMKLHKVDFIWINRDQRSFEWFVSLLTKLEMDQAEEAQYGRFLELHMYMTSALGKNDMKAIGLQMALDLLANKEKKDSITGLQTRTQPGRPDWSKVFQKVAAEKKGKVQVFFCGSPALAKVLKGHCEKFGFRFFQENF
# assay info: NOX5-dependent H2O2 signal modulators, primary screen, NOX inhibitor project, cell-based, HEK293-NOX5, Amplex Red fluorescence (AID 1161)
# cond: HEK293-NOX5, ionomycin, 45 min, higher = more signal
Property: z-score; scope: individual compounds
value type: z-score

In [3]: df
Out[3]:
                                   compound  value_measured
0  [N-]=[N+]=NCc1ccccc1C[C@@]1(C(=O)N2CCCCC2)N=C(c2ccc(OCCCO)cc2)O[C@@H]1c1ccccc1CN=[N+]=[N-]          -0.859
1  CCCNC(=O)[C@@]1(C)c2ccccc2C(=O)N(Cc2ccccc2)[C@H]1c1ccc(CO)cc1           0.885
2  NCCCCCNC(=O)[C@@H]1C[C@@H]2C(=O)N3CCC[C@H]3C(=O)N2[C@@H]1c1ccc(O)cc1          0.0464
3  CCCNC(=O)[C@@]1(Sc2ccc(C)cc2)CC(=O)N(C(C)C)[C@@H]1c1ccc(CO)cc1I           0.276
4  O=C1[C@@H]2[C@@H](CC(COc3ccccc3)=C3[C@@H](CCc4ccccc4)OB(O)C[C@@H]32)C(=O)N1Cc1ccccc1          -0.199
5  O=C1C2C=CC(C(O)c3ccco3)N(Nc3ccccc3)C2C(=O)N1c1ccccc1 (configuration not stated)           -2.52
6  COc1ccc(NC(=O)O[C@H]2[C@@H]3OC(=O)[C@H](Cc4cccc(Br)c4)C/C=C/C[C@@H](Cc4cccc(Br)c4)C(=O)O[C@H]3[C@@H](OC)O[C@@H]2CO)cc1           -1.64

###

# assay info: basal 3T3-L1 adipocyte mitochondrial potential changes, profiling panel, cell-based, JC-1 fluorescence, 3T3-L1 adipocytes, 24 h, 100 nL compound (AID 1168); further: test concentration not given here
# cond: JC-1 mitochondrial fluorescence, higher = more signal, called active from +8 up or from −8 down
Quick rule for you: z-score at 0.2 or higher means condition met, lower means condition not met.

compound	group label
[N-]=[N+]=NCc1ccccc1[C@@H]1OC(c2ccc(OCCCO)cc2)=N[C@]1(Cc1ccccc1)C(=O)NCCN1CCOCC1	condition met
COC(=O)[C@@]1(Cc2ccc(OC)cc2)[C@H]2c3cc(C(=O)N4CCCC4)n(Cc4ccc(OC(F)(F)F)cc4)c3C[C@H]2CN1C(=O)c1ccccc1	condition not met
C=C(C(=O)CC[C@H](OC(=O)c1ccccc1-c1ccccc1C(=O)O)c1ccccc1OCCO)C(C)C	condition met
COCCOC(=O)N1C(=O)[C@@]2(c3cc(C#Cc4ccc(OC)cc4)ccc31)[C@H](c1ccc(OCCO)cc1)N1[C@H](c3ccccc3)[C@H](c3ccccc3)OC(=O)[C@H]1[C@@H]2C(=O)Nc1nc2ccccc2s1	condition met
CC1CC/C=C\[C@H]2OC34C=CCN(CCN5CCOCC5)C(=O)[C@H]3N(C(C)CO)C(=O)[C@@H]4C2C(=O)O1 (some centres not stated)	condition met
COc1ccc([Si](C)(C)[C@H]2[C@H](CC(=O)N3Cc4ccccc4C[C@H]3CO)O[C@@]3(C(=O)N(Cc4ccc(N5C(=O)c6cccc7cccc5c67)cc4)c4ccccc43)[C@@H]2C)cc1	condition not met
Cc1ccc(N2C(=O)c3ccccc3[C@](C)(C(=O)NCc3ccccc3)[C@@H]2c2ccc(CO)cc2)nc1	condition not met
CC(C)N1CC=CC23O[C@@H]4/C=C\CCCOC(=O)C4[C@H]2C(=O)N(CCCCCCO)[C@@H]3C1=O (some centres not stated)	condition not met
C=CCC(OC(C)=O)[C@@H]1[C@@H](N(Cc2cc3ccccc3o2)C(=O)c2ccc(-c3ccccc3)cc2)c2cc(OCCCO)ccc2N1C(=O)Cc1ccc(OC)cc1 (some centres not stated)	condition not met
CS(=O)(=O)CCOC(=O)C1=CC(CCCO)=CC(C2CC2)N(Cc2cccc(OC(F)(F)F)c2)C=C1C(=O)OCCS(C)(=O)=O (configuration not stated)	condition not met
CN(C)CCCNC(=O)[C@@H]1c2ccccc2C(=O)N(C2CCCCC2)[C@H]1c1ccc(CO)cc1	condition met
CC(C)CNC(=O)[C@@]1(C)c2ccccc2C(=O)N(Cc2cc(C(F)(F)F)cc(C(F)(F)F)c2)[C@H]1c1ccc(CO)cc1	condition not met

###

# assay info: HepG2 cell viability effects, profiling panel, calcein-AM fluorescence, 48 h, basal (AID 1164); further: test concentration not given here
# cond: higher = more signal
Property: z-score; scope: individual compounds

compound	z-score
C=C(COC)/C(=C/C[C@H](OC(C)=O)c1cccc(OCCO)c1)c1cnc2ccccc2c1	0.455
C=C[C@@H](OC)[C@H](OC(=O)Nc1ccc(OC)cc1)c1ccc(OC)c(O)c1	-0.192
C=CC[C@H](OC(=O)Nc1ccc(SC)cc1)c1ccc(OCCO)cc1	-0.91
COCCOC(=O)N1C(=O)[C@@]2(c3ccccc31)[C@H](c1ccccc1OCCO)N1[C@H](c3ccccc3)[C@H](c3ccccc3)OC(=O)[C@H]1[C@@H]2C(N)=O	-1.85
O=C(CS)NCCCCCCNC(=O)[C@@H]1C[C@@H]2C(=O)NCC(=O)N2[C@@H]1c1ccc(O)cc1	0.435
C=C(C)[C@@H]1CC=C(C(O)C2C=CC3C(=O)N(c4ccccc4)C(=O)C3N2Nc2ccc(C#N)cc2)CC1 (some centres undefined)	0.166
COCCOC(=O)N1C(=O)[C@@]2(c3cc(C#CCC(C(=O)OC)C(=O)OC)ccc31)[C@H](C(=O)NC[C@H](O)c1ccccc1)[C@H]1C(=O)O[C@H](c3ccccc3)[C@H](c3ccccc3)N1[C@@H]2c1ccc(OCCO)cc1	0.583
CO[C@H]1O[C@H](CO)[C@@H](OC(=O)c2ccc(Br)cc2)[C@@H]2OC(=O)[C@H](Cc3ccccc3)C/C=C/C[C@@H](Cc3ccccc3)C(=O)O[C@@H]12	0.857
COc1ccc([Si](C)(C)[C@@H]2[C@@H](CCn3cc([C@H](O)c4ccccc4)nn3)O[C@]3(C(=O)N(c4ccccc4)c4ccccc43)[C@H]2C)cc1	-2.22
NC(=O)[C@H]1[C@@H]2C(=O)O[C@@H](c3ccccc3)[C@@H](c3ccccc3)N2[C@@H](c2ccc(O)cc2)[C@]12C(=O)Nc1ccccc12	0.872
CCCCCN1CC=CC23O[C@@H]4/C=C\CCC(C)OC(=O)C4[C@H]2C(=O)N(CCCCCCO)[C@@H]3C1=O (some centres undefined)	0.822
C[C@@H]1ON(c2ccc(I)cc2)[C@H](c2ccc(OC(=O)OC(C)(C)C)cc2)[C@H]1C(=O)N1C(=O)OC[C@H]1Cc1ccccc1	1.61
C[C@]1(C(=O)NCC(F)(F)F)c2ccccc2C(=O)N(Cc2ccccc2)[C@H]1c1ccc(CO)cc1	0.57
C=CCNC(=O)[C@@H]1[C@H]2C(=O)O[C@H](c3ccccc3)[C@H](c3ccccc3)N2[C@H](c2ccc(O)cc2)[C@@]12C(=O)N(C(=O)OCCOC)c1ccc(C#CCCO)cc12	0.723
COC(=O)[C@@]1(Cc2ccccc2CN=[N+]=[N-])N=C(c2ccc(OCCCO)cc2)O[C@H]1c1ccccc1CN=[N+]=[N-]	-5.01
CN1C(=O)C2C=CC(C(O)c3cc(C(F)(F)F)cc(C(F)(F)F)c3)N(Nc3ccccc3)C2C1=O (centres undefined)	-0.78
COCCCNC(=O)[C@@]1(c2ccc([N+](=O)[O-])cc2)CC(=O)N(CC23CC4CC(CC(C4)C2)C3)[C@@H]1c1ccc(CO)cc1I	-2.75
CN1C(=O)C2C=CC(C(O)c3ccc(F)cc3)N(NC(=O)OC(C)(C)C)C2C1=O (centres undefined)	0.0643
COc1cc(NN2C(C(O)c3ccc(I)cc3)C=CC3C(=O)N(c4ccccc4)C(=O)C32)cc(OC)c1OC (centres undefined)	-0.683
O=C1N[C@@H](Cc2ccccc2)C(=O)N2[C@@H]1C[C@@H](C(=O)O)[C@H]2c1ccc(O)cc1	-0.361
COCCOC(=O)N1C(=O)[C@@]2(c3cc(C#CC4(O)CCCCCC4)ccc31)[C@H](c1ccc(OCCO)cc1)N1[C@H](c3ccccc3)[C@H](c3ccccc3)OC(=O)[C@H]1[C@@H]2C(=O)Nc1nc2ccccc2s1	0.499
C=C(COC)C(=O)CC[C@H](OC(C)=O)c1ccc(OCCO)cc1	-0.974
CCCCC(=C=CC[C@H](O)c1ccc(OCCO)cc1)C[C@H](O)c1cc(Cl)cc(Cl)c1O	-0.197
CC(C)C(=C=CC[C@@H](O)c1cccc(OCCO)c1)C[C@@H](O)COCc1ccccc1	0.512
COCCOC(=O)N1C(=O)[C@@]2(c3cc(C#CCNC(N)=O)ccc31)[C@H](c1ccc(O)cc1)N1[C@H](c3ccccc3)[C@H](c3ccccc3)OC(=O)[C@H]1[C@@H]2C(=O)N1CCN(c2ncccn2)CC1	0.527
Cc1ccc(S[C@]2(C(=O)NCC(C)C)CC(=O)N(C3Cc4ccccc4C3)[C@@H]2c2ccc(CO)cc2I)cc1	-0.455
COc1cc2c(cc1O)C(c1ccc(CN3CCCC3)cc1)N(C)CC2 (centres undefined)	0.339
C=C[C@@H](C)[C@H](O)c1ccc(OCCO)cc1	-0.0484
[N-]=[N+]=NCc1ccccc1[C@@H]1OC(c2ccc(OCCCO)cc2)=N[C@]1(Cc1ccccc1N=[N+]=[N-])C(=O)N1CCCCC1	0.461
